// provenance: patent US20120207760A1

- Target Of Assay: recombinant homotrimeric HA, A/common magpie/Hong Kong/5052/07 H5N1 (Influenza A virus A/common magpie/Hong Kong/5052/07 (H5N1))
- Assay Method Text: trimeric HA microarray, transfection set 2
- Condition Notes: remark: other sources report otherwise
Cut-off 40000 RLU on Trimeric HA Binding RLU, inclusive. At or above means rule met; below means rule not met.

API: above_or_equal(metric=Trimeric HA Binding RLU, cutoff=40000 RLU) for item TCN-504 (3251_K17) (antibody, V domains shown) VH: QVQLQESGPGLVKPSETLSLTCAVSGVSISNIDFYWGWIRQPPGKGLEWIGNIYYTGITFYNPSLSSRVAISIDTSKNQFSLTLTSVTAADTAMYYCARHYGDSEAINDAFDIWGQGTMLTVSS VL: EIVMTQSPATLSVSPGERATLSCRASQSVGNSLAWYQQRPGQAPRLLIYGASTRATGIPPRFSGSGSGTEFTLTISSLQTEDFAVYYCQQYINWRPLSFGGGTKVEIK
rule not met

Reported Trimeric HA Binding RLU at or above 40000 RLU? TCN-522 (3212_I12) (antibody, V domains shown) VH: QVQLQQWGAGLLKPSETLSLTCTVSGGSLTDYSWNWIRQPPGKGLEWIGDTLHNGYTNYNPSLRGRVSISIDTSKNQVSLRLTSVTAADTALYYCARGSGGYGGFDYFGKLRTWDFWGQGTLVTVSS VL: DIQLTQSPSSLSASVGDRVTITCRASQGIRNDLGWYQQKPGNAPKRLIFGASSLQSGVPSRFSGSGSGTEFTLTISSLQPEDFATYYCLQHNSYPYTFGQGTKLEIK
rule not met

Does TCN-528 (5087_P17) (antibody, V domains shown) VH: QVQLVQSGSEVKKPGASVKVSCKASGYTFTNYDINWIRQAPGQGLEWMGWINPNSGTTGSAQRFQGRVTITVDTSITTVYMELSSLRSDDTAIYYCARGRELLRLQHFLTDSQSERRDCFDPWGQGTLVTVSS VL: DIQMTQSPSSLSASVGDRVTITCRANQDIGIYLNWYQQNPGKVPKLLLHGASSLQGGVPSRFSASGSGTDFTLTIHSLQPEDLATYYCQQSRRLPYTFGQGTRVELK have a reported Trimeric HA Binding RLU of at least 40000 RLU?
rule met

Hi team, for TCN-527 (5086_C06) (antibody, V domains shown) VH: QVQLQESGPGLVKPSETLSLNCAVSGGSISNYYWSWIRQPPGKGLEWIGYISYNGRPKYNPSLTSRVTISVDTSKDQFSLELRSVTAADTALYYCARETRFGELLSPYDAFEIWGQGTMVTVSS VL: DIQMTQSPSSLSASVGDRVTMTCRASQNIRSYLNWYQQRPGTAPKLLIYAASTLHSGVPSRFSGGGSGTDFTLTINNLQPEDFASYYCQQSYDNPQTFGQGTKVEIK , is the recorded Trimeric HA Binding RLU at or above 40000 RLU?
rule met

Identify whether the reported Trimeric HA Binding RLU of the following binder is 40000 RLU or greater: TCN-523 (5248_A17) (antibody, V domains shown) VH: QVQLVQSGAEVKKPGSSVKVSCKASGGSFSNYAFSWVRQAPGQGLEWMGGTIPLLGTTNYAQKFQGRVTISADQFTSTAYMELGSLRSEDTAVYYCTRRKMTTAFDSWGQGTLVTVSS VL: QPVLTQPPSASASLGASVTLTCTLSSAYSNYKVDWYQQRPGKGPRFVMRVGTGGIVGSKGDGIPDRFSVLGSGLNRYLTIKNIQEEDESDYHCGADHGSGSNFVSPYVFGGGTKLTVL
rule not met

Is it the case that TCN-563 (5237_B21) (antibody, V domains shown) VH: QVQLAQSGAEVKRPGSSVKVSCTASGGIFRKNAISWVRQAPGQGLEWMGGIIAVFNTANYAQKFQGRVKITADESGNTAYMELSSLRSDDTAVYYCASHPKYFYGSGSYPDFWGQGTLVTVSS VL: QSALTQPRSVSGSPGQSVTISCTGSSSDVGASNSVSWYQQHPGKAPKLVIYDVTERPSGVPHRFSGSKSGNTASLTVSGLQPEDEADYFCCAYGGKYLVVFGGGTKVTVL has Trimeric HA Binding RLU reaching or exceeding 40000 RLU?
rule met
